target: T1, human chemokine (C-C motif) receptor 8 (CCR8) (human, UniProt P51685 1-355)
T1 construct: also called hCCR8
T1 sequence (P51685 whole entry): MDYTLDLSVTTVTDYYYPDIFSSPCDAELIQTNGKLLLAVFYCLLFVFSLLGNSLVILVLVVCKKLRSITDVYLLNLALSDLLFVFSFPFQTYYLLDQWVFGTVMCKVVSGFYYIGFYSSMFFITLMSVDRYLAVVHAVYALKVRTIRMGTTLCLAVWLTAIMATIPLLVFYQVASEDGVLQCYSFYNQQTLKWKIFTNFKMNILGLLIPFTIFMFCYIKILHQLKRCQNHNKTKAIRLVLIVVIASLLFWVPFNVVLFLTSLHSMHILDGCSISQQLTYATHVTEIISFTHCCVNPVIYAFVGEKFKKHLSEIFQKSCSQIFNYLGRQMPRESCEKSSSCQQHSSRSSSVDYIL
assay: flow cytometry blocking, human PBMC, CD3+ gate; competitor PE-AB6
measurementType: % Blocking (%)
Use % as the unit, but write only the number.

Below are worked cases with known answers.
Note % Blocking for the binder shown: anti-CCR8 monoclonal antibody AB7 (antibody, V domains shown, Hybridoma monoclonal; also called antibody 7; clone 7) VH: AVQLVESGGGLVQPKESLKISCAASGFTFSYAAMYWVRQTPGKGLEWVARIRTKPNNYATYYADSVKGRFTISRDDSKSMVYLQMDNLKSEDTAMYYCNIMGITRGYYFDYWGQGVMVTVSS VL: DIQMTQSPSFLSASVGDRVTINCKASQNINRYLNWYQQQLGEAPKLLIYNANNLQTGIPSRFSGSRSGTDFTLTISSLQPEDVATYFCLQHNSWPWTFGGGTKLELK
-0.24

Look up and report measured % Blocking for this entry: anti-CCR8 monoclonal antibody AB6 (antibody, V domains shown, also called antibody 6; clone 6) VH: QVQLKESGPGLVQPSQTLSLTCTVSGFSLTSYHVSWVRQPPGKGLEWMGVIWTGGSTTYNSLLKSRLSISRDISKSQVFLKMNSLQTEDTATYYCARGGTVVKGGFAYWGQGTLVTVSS VL: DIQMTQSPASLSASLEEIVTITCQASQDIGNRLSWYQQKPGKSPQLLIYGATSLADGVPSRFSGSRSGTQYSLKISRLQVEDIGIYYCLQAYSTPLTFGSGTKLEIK
12.4

Read off the recorded % Blocking for anti-CCR8 monoclonal antibody AB8 (antibody, V domains shown, Hybridoma monoclonal; also called antibody 8; clone 8) VH: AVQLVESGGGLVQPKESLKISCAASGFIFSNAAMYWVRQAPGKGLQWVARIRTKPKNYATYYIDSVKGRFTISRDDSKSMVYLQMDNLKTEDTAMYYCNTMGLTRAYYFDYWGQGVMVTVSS VL: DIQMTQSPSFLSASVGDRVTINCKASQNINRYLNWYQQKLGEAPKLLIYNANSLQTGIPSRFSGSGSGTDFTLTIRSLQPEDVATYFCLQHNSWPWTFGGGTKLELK
1.33

More entries:
Supply % Blocking value. Item: anti-CCR8 monoclonal antibody AB10 (antibody, V domains shown, Hybridoma monoclonal; also called antibody 10; clone 10) VH: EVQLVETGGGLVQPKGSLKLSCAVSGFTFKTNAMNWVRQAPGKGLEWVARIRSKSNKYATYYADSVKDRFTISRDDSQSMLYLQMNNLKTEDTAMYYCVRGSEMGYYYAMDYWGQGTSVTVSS VL: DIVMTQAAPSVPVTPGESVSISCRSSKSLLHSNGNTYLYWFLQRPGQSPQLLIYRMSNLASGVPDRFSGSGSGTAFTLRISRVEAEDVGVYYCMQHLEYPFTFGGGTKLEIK
6.04

Indicate its recorded % Blocking; the binder in question is anti-CCR8 monoclonal antibody AB13 (antibody, V domains shown, Hybridoma monoclonal; also called antibody 13; clone 13) VH: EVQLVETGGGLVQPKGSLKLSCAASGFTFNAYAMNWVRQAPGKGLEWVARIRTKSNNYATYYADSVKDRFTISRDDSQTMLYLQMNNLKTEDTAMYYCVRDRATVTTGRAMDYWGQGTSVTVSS VL: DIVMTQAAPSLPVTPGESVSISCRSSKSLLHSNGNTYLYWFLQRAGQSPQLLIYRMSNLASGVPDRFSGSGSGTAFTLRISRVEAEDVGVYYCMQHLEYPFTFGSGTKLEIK
-4.11

Give the value of % Blocking reported for the following: anti-CCR8 monoclonal antibody AB5 (antibody, V domains shown, Hybridoma monoclonal; also called antibody 5; clone 5) VH: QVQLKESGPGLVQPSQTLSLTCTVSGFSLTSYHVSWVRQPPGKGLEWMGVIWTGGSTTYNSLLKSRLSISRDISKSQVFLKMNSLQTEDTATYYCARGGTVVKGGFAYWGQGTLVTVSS VL: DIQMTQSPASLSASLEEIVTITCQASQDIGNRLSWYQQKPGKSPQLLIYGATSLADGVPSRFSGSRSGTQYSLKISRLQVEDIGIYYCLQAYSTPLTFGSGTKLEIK
96.1

Specify measured % Blocking for anti-CCR8 monoclonal antibody AB11 (antibody, V domains shown, Hybridoma monoclonal; also called antibody 11; clone 11) VH: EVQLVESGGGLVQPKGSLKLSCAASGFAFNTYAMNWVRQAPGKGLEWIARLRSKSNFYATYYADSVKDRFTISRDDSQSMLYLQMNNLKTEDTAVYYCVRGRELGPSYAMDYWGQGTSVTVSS VL: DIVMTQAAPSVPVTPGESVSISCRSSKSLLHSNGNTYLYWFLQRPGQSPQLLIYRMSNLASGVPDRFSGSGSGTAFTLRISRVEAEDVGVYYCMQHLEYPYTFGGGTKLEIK .
2.9
